- Target or test system: Coagulation factor VII (Homo sapiens, UniProt P08709)
- Sequence (P08709 whole entry): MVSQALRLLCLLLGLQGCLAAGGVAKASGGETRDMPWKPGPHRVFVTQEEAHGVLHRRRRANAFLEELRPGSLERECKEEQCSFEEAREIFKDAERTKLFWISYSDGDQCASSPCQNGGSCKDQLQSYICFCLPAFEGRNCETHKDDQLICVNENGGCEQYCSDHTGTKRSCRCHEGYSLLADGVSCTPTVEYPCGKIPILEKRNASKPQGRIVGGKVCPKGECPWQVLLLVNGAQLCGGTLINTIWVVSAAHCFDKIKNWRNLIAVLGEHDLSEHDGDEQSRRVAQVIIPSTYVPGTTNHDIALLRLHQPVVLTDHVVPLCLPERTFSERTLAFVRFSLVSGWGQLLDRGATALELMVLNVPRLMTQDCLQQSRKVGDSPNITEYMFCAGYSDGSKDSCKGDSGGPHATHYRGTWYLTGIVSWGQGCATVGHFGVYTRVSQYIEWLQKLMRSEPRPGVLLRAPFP

{"Smiles code": "CS(=O)(=O)c1cccc(-c2cc(CC(=O)O)cc(-c3cc4[nH]c(N)ccc-4n3)c2O)c1", "Ki": "7.4 µM"}
{"Smiles code": "NC(=O)Nc1cccc(-c2cc(CC(=O)O)cc(-c3cc4[nH]c(N)ccc-4n3)c2O)c1", "Ki": "12 µM"}
